measurement_type: melting point

[
  {
    "compound": "Fc1ccc(-c2nc3ccc(N4CCN(Cc5ccccc5)CC4)nn3c2-c2ccnc3[nH]ccc23)cc1",
    "measurement_type": "melting point",
    "observed_measurement": "274 to 278 °C"
  },
  {
    "compound": "CC(C)(CO)N1CCN(c2ccc3nc(-c4ccc(F)cc4)c(-c4ccnc5[nH]ccc45)n3n2)CC1",
    "measurement_type": "melting point",
    "observed_measurement": "> 250 °C"
  },
  {
    "compound": "Cc1cc(N2CCNC(c3ccccc3)C2)nn2c(-c3ccnc4[nH]ccc34)c(-c3ccc(F)cc3)nc12 (stereo not shown)",
    "measurement_type": "melting point",
    "observed_measurement": "253 to 257 °C"
  }
]

Short answer for Cc1cc(N2CCN(CCO)CC2)nn2c(-c3ccnc4[nH]ccc34)c(-c3ccc(F)cc3)nc12 : melting point was 239 to 242 °C
